# credit: ChEMBL document CHEMBL2311457

Can you tell me pKi for the items I'm about to list?
assay-remarks: Binding affinity to Escherichia coli ThrRS by coupled spectrophotometry
When answering, recall that pKi equals minus log10 of the concentration in mol/L, and write that number alone.

Quick check: pKi of C[C@@H](O)[C@H](N)C(=O)NS(=O)(=O)N1CCc2ccc(-c3ncnc4[nH]ccc34)cc2C1 ? 8.02

Quick check: pKi of C[C@@H](O)[C@H](N)C(=O)NS(=O)(=O)c1cccc(-c2ccc3[nH]nc(Cl)c3c2)c1 ? 7.28

Quick check: pKi of C[C@@H](O)[C@H](N)C(=O)NS(=O)(=O)/C=C/c1cccc(-c2cc(N)ncn2)c1 ? 8.57

Quick check: pKi of C[C@@H](O)[C@H](N)C(=O)NNc1cccc(-c2ccc3c(N)nc(Cl)nc3c2)c1 ? 6.87

Quick check: pKi of C[C@@H](O)[C@H](N)C(=O)NS(=O)(=O)c1cccc(-c2ccc3c(N)nccc3c2)c1 ? 7.05

Quick check: pKi of C[C@@H](O)[C@H](N)C(=O)NS(=O)(=O)c1cccc(-c2ccc3c(c2)CNC3=O)c1 ? 8.11

Quick check: pKi of C[C@@H](O)[C@H](N)C(=O)NS(=O)(=O)c1cccc(-c2ccc3[nH]ncc3c2)c1 ? 6.74

Quick check: pKi of C[C@@H](O)[C@H](N)C(=O)NS(=O)(=O)c1ccc(Oc2ccccc2)cc1 ? 4.44

Quick check: pKi of CC(C)[C@@H](O)[C@H](N)C(=O)NS(=O)(=O)/C=C/c1cccc(-c2cc(N)ncn2)c1 ? 7.49

Quick check: pKi of C[C@@H](O)[C@H](N)C(=O)NS(=O)(=O)c1cccc(-c2ccc3c(N)nc(N)nc3c2)c1 ? 7.97

Quick check: pKi of C[C@@H](O)[C@H](N)C(=O)NS(=O)(=O)c1ccc2ccc(-c3cc(N)ncn3)cc2c1 ? 8.57

Quick check: pKi of Cc1n[nH]c2ccc(-c3cccc(S(=O)(=O)NC(=O)[C@@H](N)[C@@H](C)O)c3)cc12 ? 6.90

Quick check: pKi of C[C@@H](O)[C@H](N)C(=O)NS(=O)(=O)c1cccc(-c2ccc3c(N)nc(Cl)cc3c2)c1 ? 7.70

Quick check: pKi of C[C@@H](O)[C@H](N)C(=O)NS(=O)(=O)c1cccc(-c2ccc3c(N)nc(Cl)nc3c2)c1 ? 9.10

====

Can you tell me Ki for the items I'm about to list?
test-system: UniProt Q8ZDW5
Sequence (Q8ZDW5 whole entry): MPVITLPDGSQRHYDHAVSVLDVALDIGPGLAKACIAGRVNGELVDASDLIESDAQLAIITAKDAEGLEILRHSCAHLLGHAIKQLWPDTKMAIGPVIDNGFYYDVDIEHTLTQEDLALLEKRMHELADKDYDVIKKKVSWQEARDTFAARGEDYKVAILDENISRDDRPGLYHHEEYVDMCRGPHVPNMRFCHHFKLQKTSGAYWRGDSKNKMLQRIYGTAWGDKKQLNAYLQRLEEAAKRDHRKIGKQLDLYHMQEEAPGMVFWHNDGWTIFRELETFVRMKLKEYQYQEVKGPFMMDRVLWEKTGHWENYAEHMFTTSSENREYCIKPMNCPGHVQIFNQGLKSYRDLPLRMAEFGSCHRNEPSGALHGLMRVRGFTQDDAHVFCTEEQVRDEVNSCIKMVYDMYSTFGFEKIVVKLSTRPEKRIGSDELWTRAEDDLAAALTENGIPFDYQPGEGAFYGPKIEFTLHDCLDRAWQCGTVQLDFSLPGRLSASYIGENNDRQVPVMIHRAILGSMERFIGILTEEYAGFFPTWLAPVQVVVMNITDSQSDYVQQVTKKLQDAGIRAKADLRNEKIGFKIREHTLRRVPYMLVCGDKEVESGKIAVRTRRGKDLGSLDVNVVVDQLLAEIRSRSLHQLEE

Quick check: Ki of C[C@@H](O)[C@H](N)C(=O)N(C)S(=O)(=O)c1cccc(-c2ccc3c(c2)CNC3=O)c1 ? > 50 µM

Quick check: Ki of C[C@@H](N)[C@H](N)C(=O)NS(=O)(=O)/C=C/c1cccc(-c2cc(N)ncn2)c1 ? > 50 µM

Quick check: Ki of C[C@@H](O)[C@H](O)C(=O)NS(=O)(=O)/C=C/c1cccc(-c2cc(N)ncn2)c1 ? > 50 µM
